Kindly supply the reported pIC50 values for the records listed here.
Test system: Rh18 complex spheroid viability, percent test/control
protocol.text: Anticancer human tumor Rh18 cell line growth inhibition [Asc];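 also: spheroids exposed to compound for 7 days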
settings: curve of first compound; second compound 0.0949 µM
Source text: Multicellular complex tumor spheroid response to apoptosis pathway targeting inhibitors Alrizomadlin, Pelcitoclax, and Dasminapant in combination with a variety of drugs and investigational agents in selected tumor cell lines […] Compounds. […] If the clinical Cmax for an agent had not been determined, the highest concentration tested was 10 microM. […]
pIC50: −log10 of the molar value.

| molecule | tested.target | assay.result |
| --- | --- | --- |
| C#Cc1c(F)ccc2cc(O)cc(-c3ncc4c(N5CC6CCC(C5)N6)nc(OCC56CCCN5CC(F)C6)nc4c3F)c12 (stereo not drawn) + CCN1C(C(=O)NC23CCC(C(=O)O)(CC2)CC3)C(c2cccc(Cl)c2F)C2(C(=O)Nc3cc(Cl)ccc32)C12CCCCC2 | Rh18 complex spheroid viability, percent test/control | > 7.50 |
| CNC(C)C(=O)NC1CN(S(=O)(=O)c2cccc(S(=O)(=O)N3CCC4CCC(C(=O)NC(c5ccccc5)c5ccccc5)N4C(=O)C(NC(=O)C(C)NC)C3)c2)CCC2CCC(C(=O)NC(c3ccccc3)c3ccccc3)N2C1=O (stereo not drawn) + CCN1C(C(=O)NC23CCC(C(=O)O)(CC2)CC3)C(c2cccc(Cl)c2F)C2(C(=O)Nc3cc(Cl)ccc32)C12CCCCC2 | Rh18 complex spheroid viability, percent test/control | > 8.50 |

What does the record list as pIC50 for CCN1CCN(Cc2ccc(Nc3ncc(F)c(-c4cc(F)c5nc(C)n(C(C)C)c5c4)n3)nc2)CC1 + CCN1C(C(=O)NC23CCC(C(=O)O)(CC2)CC3)C(c2cccc(Cl)c2F)C2(C(=O)Nc3cc(Cl)ccc32)C12CCCCC2 ?
> 8.50
